Parameter: relative viability. Scope: all listed entries.
- System: UMC-11
- testProtocol: relative viability (nuclei count vs DMSO), 5 days (fraction); higher = more cells survive
- testSettings: first compound 0.253 µM
observable: relative viability

COc1nc(C)cnc1NS(=O)(=O)c1cccnc1-c1ccc(-c2nnco2)cc1 [Zibotentan] + Cc1cc(Nc2cc(N3CCN(C)CC3)nc(Sc3ccc(NC(=O)C4CC4)cc3)n2)n[nH]1 [Tozasertib] (partner 0.1 µM)	0.204
COc1nc(C)cnc1NS(=O)(=O)c1cccnc1-c1ccc(-c2nnco2)cc1 [Zibotentan] + CC1(C)CCC(c2ccc(Cl)cc2)=C(CN2CCN(c3ccc(C(=O)NS(=O)(=O)c4ccc(N[C@H](CCN5CCOCC5)CSc5ccccc5)c(S(=O)(=O)C(F)(F)F)c4)cc3)CC2)C1 [Navitoclax] (partner 0.5 µM)	0.32
O=c1cc(-c2cccc3c2Sc2ccccc2S3)oc(N2CCOCC2)c1 + C[C@]1(O)C[C@@H](c2nc(-c3ccc4ccc(-c5ccccc5)nc4c3)c3c(N)nccn32)C1 [Linsitinib] (partner 1 µM)	1.17
COc1nc(C)cnc1NS(=O)(=O)c1cccnc1-c1ccc(-c2nnco2)cc1 [Zibotentan] + CC(=O)Nc1cccc(-n2c(=O)n(C3CC3)c(=O)c3c(Nc4ccc(I)cc4F)n(C)c(=O)c(C)c32)c1 [Trametinib] (partner 0.02 µM)	0.665

====

- Test system: NCI-H1650
- testProtocol: relative viability (nuclei count vs DMSO), 5 days (fraction); higher = more cells survive
- testSettings: first compound 0.03162 µM
observable: relative viability

CCN(CC)CCCCNc1ncc2cc(-c3cc(OC)cc(OC)c3)c(NC(=O)NC(C)(C)C)nc2n1 + Nc1nc2[nH]cc(CCc3ccc(C(=O)N[C@@H](CCC(=O)O)C(=O)O)cc3)c2c(=O)[nH]1 [Pemetrexed] (partner 0.2 µM)	0.377
O=c1cc(N2CCOCC2)oc2c(-c3cccc4c3sc3ccccc34)cccc12 + CS(=O)(=O)CCNCc1ccc(-c2ccc3ncnc(Nc4ccc(OCc5cccc(F)c5)c(Cl)c4)c3c2)o1 [Lapatinib] (partner 2 µM)	0.831
O=c1cc(N2CCOCC2)oc2c(-c3cccc4c3sc3ccccc34)cccc12 + COc1cccc2cc(-c3nc([C@H]4CC[C@H](C(=O)O)CC4)n4ncnc(N)c34)[nH]c12 [OSI-027] (partner 0.5 µM)	0.631
CCN(CC)CCCCNc1ncc2cc(-c3cc(OC)cc(OC)c3)c(NC(=O)NC(C)(C)C)nc2n1 + CS(=O)(=O)N1CCN(Cc2cc3nc(-c4cccc5[nH]ncc45)nc(N4CCOCC4)c3s2)CC1 [Pictilisib] (partner 1 µM)	0.464
O=c1cc(N2CCOCC2)oc2c(-c3cccc4c3sc3ccccc34)cccc12 + O=C(CCCCCCC(=O)Nc1ccccc1)NO [Vorinostat] (partner 1 µM)	0.692

====

- Tested on: COR-L 105
- testProtocol: relative viability (nuclei count vs DMSO), 5 days (fraction); higher = more cells survive
- testSettings: first compound 0.8 µM
observable: relative viability

COc1nc(C)cnc1NS(=O)(=O)c1cccnc1-c1ccc(-c2nnco2)cc1 [Zibotentan] + O=C(c1cc(Cc2n[nH]c(=O)c3ccccc23)ccc1F)N1CCN(C(=O)C2CC2)CC1 [Olaparib] (partner 8 µM)	0.721
COc1nc(C)cnc1NS(=O)(=O)c1cccnc1-c1ccc(-c2nnco2)cc1 [Zibotentan] + CS(=O)(=O)CCNCc1ccc(-c2ccc3ncnc(Nc4ccc(OCc5cccc(F)c5)c(Cl)c4)c3c2)o1 [Lapatinib] (partner 2 µM)	0.394
O=c1cc(-c2cccc3c2Sc2ccccc2S3)oc(N2CCOCC2)c1 + Cc1nc(Nc2ncc(C(=O)Nc3c(C)cccc3Cl)s2)cc(N2CCN(CCO)CC2)n1 [Dasatinib] (partner 0.075 µM)	0.326

Value source: the supplement of paper PMC10307832
